All figures here come from patent US20250042994A1.

# Target or test system: T1, Human CD19-his protein (human, UniProt P15391 20-291)
# T1 construct: bought protein; also called human CD19 protein; recombinant human CD19-His; not shown: His tag
# T1 sequence (looked up): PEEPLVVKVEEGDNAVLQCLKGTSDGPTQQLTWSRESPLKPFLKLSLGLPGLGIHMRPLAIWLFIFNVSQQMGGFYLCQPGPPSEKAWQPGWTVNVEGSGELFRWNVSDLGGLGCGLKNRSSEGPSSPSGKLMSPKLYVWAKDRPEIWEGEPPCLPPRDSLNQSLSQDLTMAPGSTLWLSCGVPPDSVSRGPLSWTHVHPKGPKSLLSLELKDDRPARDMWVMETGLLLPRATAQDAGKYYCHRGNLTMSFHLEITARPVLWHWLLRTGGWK
# Test description: ELISA on coated human CD19-His
Assay metric: EC50 (read off the curve)

INSERT INTO results (binder, data_value) VALUES
  ('F3.124.7 (antibody, human IgG1, V domains shown, human-murine chimeric antibody, human IgG1) VH: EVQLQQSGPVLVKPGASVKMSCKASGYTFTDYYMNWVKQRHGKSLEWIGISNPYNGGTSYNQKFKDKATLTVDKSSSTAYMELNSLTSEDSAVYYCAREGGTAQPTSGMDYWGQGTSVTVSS VL: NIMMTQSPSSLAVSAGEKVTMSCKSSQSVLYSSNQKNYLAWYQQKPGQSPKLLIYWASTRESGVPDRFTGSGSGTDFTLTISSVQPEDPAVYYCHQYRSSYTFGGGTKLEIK', '~0.03 nM');

Read the next record carefully.
QUERY: Return reported EC50 (read off the curve); argument: F4.15.9 (antibody, human IgG1, V domains shown, human-murine chimeric antibody, human IgG1) VH: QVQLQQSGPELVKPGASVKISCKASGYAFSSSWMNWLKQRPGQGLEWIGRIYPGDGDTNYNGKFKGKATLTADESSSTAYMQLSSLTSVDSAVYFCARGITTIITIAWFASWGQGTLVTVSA VL: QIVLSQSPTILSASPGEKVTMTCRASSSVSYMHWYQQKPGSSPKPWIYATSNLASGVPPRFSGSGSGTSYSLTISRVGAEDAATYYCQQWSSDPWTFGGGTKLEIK
RESULT: ~0.03 nM
